# assayed-system: Upc2 (UniProt Q12151)
# Sequence: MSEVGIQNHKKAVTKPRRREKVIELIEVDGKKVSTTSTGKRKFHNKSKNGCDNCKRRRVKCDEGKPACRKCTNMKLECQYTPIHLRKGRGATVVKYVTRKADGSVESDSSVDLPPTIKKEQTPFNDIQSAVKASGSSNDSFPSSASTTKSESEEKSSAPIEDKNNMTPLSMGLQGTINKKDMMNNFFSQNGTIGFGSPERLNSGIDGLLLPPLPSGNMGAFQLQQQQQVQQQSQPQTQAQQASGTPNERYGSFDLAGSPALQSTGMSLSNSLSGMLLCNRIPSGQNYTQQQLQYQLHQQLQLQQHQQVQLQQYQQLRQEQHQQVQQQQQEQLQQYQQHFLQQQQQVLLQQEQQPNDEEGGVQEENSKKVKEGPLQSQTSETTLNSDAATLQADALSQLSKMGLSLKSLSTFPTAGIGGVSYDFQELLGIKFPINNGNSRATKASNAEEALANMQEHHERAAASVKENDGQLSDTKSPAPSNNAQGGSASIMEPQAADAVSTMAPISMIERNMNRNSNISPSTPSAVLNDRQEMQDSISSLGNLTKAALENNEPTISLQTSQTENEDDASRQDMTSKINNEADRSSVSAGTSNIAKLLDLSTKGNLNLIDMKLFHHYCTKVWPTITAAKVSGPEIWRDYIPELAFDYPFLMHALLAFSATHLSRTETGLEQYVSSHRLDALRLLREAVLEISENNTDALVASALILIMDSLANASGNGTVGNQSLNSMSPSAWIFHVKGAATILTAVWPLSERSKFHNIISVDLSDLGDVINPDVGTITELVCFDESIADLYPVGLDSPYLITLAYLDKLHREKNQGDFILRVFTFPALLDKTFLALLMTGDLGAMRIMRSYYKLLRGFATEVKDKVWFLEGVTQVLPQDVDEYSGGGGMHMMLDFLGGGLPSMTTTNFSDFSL
# test-name: PBM E-score (8-mer binding enrichment) (E-score (-0.5 to 0.5)); higher = stronger / more preferred TF binding
# condition-notes: protein concentration: 200 nM; construct: GST-full length
The full ranking holds about 33,000 sequences; the median of “E-score (-0.5 to 0.5)” is about -0.043, and the highest 2% start at about 0.37. For the sample, the highest values were picked, then their nearest neighbours and some sequences at random.

chain	PBM E-score
AGCGTATA	0.444
AAGGACAT	0.0482
CACCGTAG	0.0923
CGCGTATC	0.253
GGCGTATA	0.434
ATTTCGTC	0.0429
CCACCGTA	0.399
GTCCGAGA	0.205
CGAAGTAG	0.00964
CACGAGGG	0.114
GGCGTAGA	0.048
ATGTACTG	-0.177
CGTTAACA	0.274
AGCGTATC	0.166
ACTTAACG	0.339
TTACTGAA	0.182
CCACCGTC	-0.227
TGTGCGAA	0.0333
CGCGTAGA	0.165
AACGAGTC	0.414
TGAAAAAA	0.0284
AGACGAGA	0.184
CGTTAACG	0.422
ACTCTTAG	-0.149
AGTCTATC	-0.159
ATTCTAAC	-0.125
CCTGCCAA	-0.0976
CTCCGTAC	0.376
GTGCCAAC	-0.0672
CTGTACGC	0.375
ATTTCGTG	0.0688
CCGGTGCA	-0.153
AGCGTGAA	-0.0302
CTACGAGA	0.359
CACGAGTC	0.00415
TTACTCAA	0.0201
GACGAGTC	0.0657
ATATAAAC	0.187
CCACCGAA	-0.00574
CTGTACCA	-0.134
AGCGTATG	0.268
CCTTTATC	-0.132
ACGAACCC	0.301
ACTCAGTC	-0.097
AACATTGT	0.0538
CAAGGTTA	0.0313
GGGAGGTA	0.132
AAGGTGGC	-0.0337
CTCCGTAA	0.285
GAACCGTA	0.269
ACTTCTGA	-0.307
CCGAACCG	0.0623
AACGAGGG	0.43
ACACCGTA	0.321
AGAGCGTA	0.223
CTGTACTC	0.00852
GTACGAGA	0.472
CACCGTAC	0.401
CGCGTATA	0.451
GCTGCAGC	-0.125
GTCTGGAA	-0.122
ATACATGC	0.169
ATGTACGG	0.373
ATGTACGA	0.472
CTGTACAC	0.152
ACCAGTGG	-0.247
CTTCATAA	-0.121
CGGCCGTC	-0.0655
GCCTCCCC	-0.149
CACCACCC	-0.124
GAAGGCGC	-0.132
GCGAACCA	0.164
AGCGAGGG	0.245
AGACGAGG	0.215
CACGTACG	0.346
GTGGTTGA	-0.0855
AGGACACT	-0.364
ACGAACCA	0.376
